Hey, just so you know, these numbers are from PubChem BioAssay AID540256.

assay: qHTS for Inhibitors of binding or entry into cells for Lassa Virus; details: Lassa virus pseudotype entry inhibition, cell reporter; series mostly up to 37.9 µM; note: nearly all actives have a fitted effect of over 50% in size
The campaign covered roughly 300,000 compounds. About 3,700 (1.2%) were called active. Not shown: some 20% with an inconclusive outcome. Calls come from the whole dose curve; tested in HEK293 cells. The full list was thinned out, with actives kept by preference.
# valid calls are YES (active), NO (inactive); nothing else

Lookup: Any idea what this test logged for NC1=NC(c2ccc([N+](=O)[O-])cc2)N(c2ccc(F)cc2)C(N)=N1 (stereo not drawn) ?
Found: NO

Lookup: I'd appreciate the recorded outcome for COc1cccc(/C=N/NC(=O)c2[nH]nc3c2CCc2ccccc2-3)c1O from this test.
Found: YES

Lookup: Dear all, I need the recorded test outcome for O=C(O)C(=Cc1ccccc1[N+](=O)[O-])c1ccccc1 , thank you.
Found: NO

Lookup: Short answer needed: outcome of this test for Cc1c(Cl)cccc1NC(=S)NCc1ccc2c(c1)OCO2 ?
Found: NO

Lookup: Per the assay record, what outcome was assigned to CC(CCc1ccccc1)NC(=O)COC(=O)c1ccc(F)cc1 (stereo not drawn) ?
Found: NO

Lookup: So what was the verdict on CC(=O)c1ccc(S(=O)(=O)NC2CC(=O)N(c3ccc4c(c3)OCCO4)C2)cc1 (stereo not drawn) in this test?
Found: NO

Lookup: Any idea what this test logged for N#CCc1c[nH]c2ccc([N+](=O)[O-])cc12 ?
Found: NO

Lookup: Give the logged outcome of this assay for the following compound: O=C(N/N=C/c1ccc(O)c2ccccc12)c1cccnc1
Found: NO

Lookup: Dear colleague, could you share the recorded outcome for CC(C)(C)NCC(O)COc1cccc2[nH]c(=O)[nH]c12 (stereo not drawn) when you have a moment?
Found: NO

Lookup: Assay outcome for CN(c1cccc(NC(=O)Nc2ccc(Cl)cc2)c1)S(C)(=O)=O : what was it?
Found: NO

Lookup: What was the test verdict on CCc1cccc(CC)c1NC(=S)NCc1ccc2[nH]c(C)cc2c1 ?
Found: YES

Lookup: Kindly provide the recorded test outcome for the following compound: Cc1ccc(CNC(=O)COc2ccc3c(c2)CCC3)cc1
Found: YES

Lookup: # lookup: test call for O=c1oc2ccccc2cc1-c1cn(-c2ccccc2)c(=S)[nH]1
Found: YES

Lookup: Record request — test call for CCOc1ccc(-n2c(SCC(=O)Nc3cc(C(=O)O)ccc3Cl)nc3ccccc3c2=O)cc1
Found: NO

Lookup: Could you check what this test reported for Cc1noc(COc2ccccc2OCC(O)CNC(C)(C)C)n1 (stereo not drawn) ?
Found: NO

Lookup: Would you mind telling me which call this test gave CN(C)S(=O)(=O)c1cccc(NC(=O)COC(=O)C2(c3ccccc3F)CCCC2)c1 ?
Found: YES

Lookup: Please indicate how the test categorized Cc1ccc(CNC(=O)COc2ccc(S(=O)(=O)NC(C)C)cc2)cc1 .
Found: NO

Lookup: Name the outcome recorded for Cc1ccc(S(=O)(=O)N(CC(=O)Nc2cccc([N+](=O)[O-])c2)Cc2ccc(Cl)cc2)cc1 in the assay.
Found: NO

Lookup: GET /call?item= CC(=O)Nc1ccc(NC(=O)COC(=O)C2CCC(C(C)(C)C)CC2)cc1 (stereo not drawn) returns the recorded outcome of this test.
Found: NO

Lookup: For this compound, state the assay outcome: CN(C)S(=O)(=O)c1cccc(NC(=O)COC(=O)c2cc(=O)[nH]c(=O)[nH]2)c1
Found: NO

Lookup: Lab log entry: CCOC(=O)N1CCN(C(=O)COc2ccc3oc4c(c3c2)CCCC4)CC1 — outcome as called in the assay?
Found: YES

Lookup: Hey, what did the test say about O=C(c1cn(-c2ccccc2)nc1-c1cc2ccccc2oc1=O)N1CCOCC1 ?
Found: NO

Lookup: What call does the record list for Cc1ccc(CSCC(=O)N(C)CC(=O)Nc2cccc(F)c2)cc1 ?
Found: NO

Lookup: Write down the call the test reported for this compound. Item: O=C(COc1ccc2oc3c(c2c1)CCCC3)Nc1ccccn1
Found: NO

Lookup: I would be grateful if you could indicate the recorded call for CN(C)CCNC(=O)c1[nH]nc2c1CCc1ccccc1-2 .
Found: NO

Lookup: Tell me the recorded outcome of this test for Cc1ccc(NC(=O)C(C)OC(=O)C2CC3CCCC(C2)C3=O)cc1S(=O)(=O)N1CCOCC1 (stereo not drawn) .
Found: NO

Lookup: Hey, what did the test say about C=C(C)COc1ccc(-c2n[nH]c(C)c2-c2ccccc2)c(O)c1 ?
Found: YES

Lookup: Write down the call the test reported for this compound. Item: CC(C)c1ccc(NC(=O)c2ccc(Cn3nc(N4CCN(c5ccccc5)CC4)ccc3=O)o2)cc1
Found: NO

Lookup: Called result for Cc1ccc2nc(CNC(=O)c3ccccc3)[nH]c2c1
Found: NO

Lookup: What is the recorded call for this compound in the test? O=C1c2ccccc2C(=O)C1c1ccccc1F
Found: NO

Lookup: Called result for O=C1c2ccccc2C2=Nc3ccccc3SC(c3ccccc3F)C12 (stereo not drawn)
Found: YES

Lookup: Assay result, entry Cc1ccc(SCCC(=O)OCC(=O)Nc2ncc(Cl)cc2Cl)cc1 — outcome?
Found: NO

Lookup: Status in this test for NC1=NOC(=O)C1C1CCCCC1 (stereo not drawn) ?
Found: NO

Lookup: Could you please tell me the result logged for COc1ccccc1-c1n[nH]c2c1[C@H](C)CC[C@H]2C(C)C in this assay?
Found: NO

Lookup: Kindly provide the recorded test outcome for the following compound: Nc1ncc(-c2cc3ccccc3oc2=O)s1
Found: NO

Lookup: Test call for this compound, please: Cc1ccc(/C=N/NC(=O)C2=NNC(c3ccccc3)(c3ccccc3)C2)c(O)c1
Found: YES

Lookup: Status in this test for COc1ccccc1-c1c(C)nn2c(C)c(C(C)=O)cnc12 ?
Found: NO

Lookup: Which outcome was assigned to CN(c1ccccc1)S(=O)(=O)c1ccc(Cl)c(C(=O)OCC(N)=O)c1 in this test?
Found: NO

Lookup: # lookup: test call for Cc1[nH]nc(-c2ccc(OCc3cnn(-c4ccccc4)c3)cc2O)c1Oc1ccc(Cl)cc1
Found: NO

Lookup: Could you check what this test reported for Cn1c(=O)[nH]c2c(c(C(=O)O)nn2C)c1=O ?
Found: NO

Lookup: What outcome does the record of this test show for Cc1ccc(-n2c(/C=C/c3cccc(C(F)(F)F)c3)nc3ccccc3c2=O)cc1 ?
Found: NO

Lookup: Look up the recorded call for CN(c1ccccc1)S(=O)(=O)c1cccc(NC(=O)Cc2c(F)cccc2Cl)c1 in this test.
Found: YES

Lookup: Hi team, can someone confirm the assay call for CCN(CC)CCN(C(=O)c1ccc(S(=O)(=O)N2CCOCC2)cc1)c1nc2cc3c(cc2s1)OCCO3 ?
Found: NO

###

assay: qHTS for Inhibitors of binding or entry into cells for Lassa Virus; conditions: Lassa virus pseudotype entry inhibition, cell reporter; series mostly up to 37.9 µM; note: nearly all actives have a fitted effect of over 50% in size
The campaign covered roughly 300,000 compounds. About 3,700 (1.2%) were called active. Inconclusive results (about 20%) are left out. The call rests on the fitted dose curve; tested in HEK293 cells. Shown is part of a subset that was picked to be rich in actives.
Pick from active, inactive when you respond.

Lookup: Query: recorded result category for CC(=O)Nc1ccc(S(=O)(=O)NCC(=O)OCC(=O)c2ccc[nH]2)cc1 in this test
Found: inactive

Lookup: Would you mind telling me which call this test gave Cc1ccc(C(=O)NCC(=O)OCC(=O)NC2CCCCCCC2)cc1 ?
Found: inactive

Lookup: Per the records of this test, what outcome belongs to CCc1ccc(NC(=O)CN2CCC(C(=O)c3ccc(OC)cc3)CC2)cc1 ?
Found: inactive

Lookup: What outcome does the record of this test show for O=C(NC1CC1)c1ccc(-c2ccccc2)cc1 ?
Found: inactive

Lookup: Dear colleague, could you share the recorded outcome for Cc1cc(C)c(S(=O)(=O)NCC(c2ccc3c(c2)OCO3)N2CCOCC2)c(C)c1 (stereo unspecified) when you have a moment?
Found: inactive

Lookup: Returns: the outcome recorded for CCN1CCC(N(Cc2ccc(F)cc2)C(=O)Nc2cc(C)ccc2C)CC1 in this assay.
Found: inactive

Lookup: Please indicate how the test categorized CC(C)(C)c1nnc2sc(SCC(O)=C(C#N)c3nc4ccccc4[nH]3)nn2c1=O .
Found: inactive

Lookup: What was the test verdict on O=C(CSc1nnnn1C1CCCC1)N1CCCCC1 ?
Found: inactive

Lookup: What did this assay record as the result for COc1ccc(/C=C2/SC(=O)N(CCCCCC(=O)Nc3ccccc3C(=O)O)C2=S)cc1 ?
Found: active

Lookup: What call does the record list for C=CCn1c(C)cc(C2=NNC(=NCC)SC2)c1C ?
Found: active

Lookup: GET /call?item= CCc1cccc(NC(=O)CN(C)S(=O)(=O)c2ccc3[nH]c4c(c3c2)CCCC4)c1 returns the recorded outcome of this test.
Found: inactive

Lookup: Which outcome did this test record for the molecule CC(C)CC1(C)NC(=O)N(CC(=O)Nc2ccc3c(c2)OCCO3)C1=O (stereo unspecified) ?
Found: inactive

Lookup: Which outcome was entered for the molecule Cc1ccc(SCC(=O)N2CCN(c3ccc(F)cc3)CC2)cc1 in this test?
Found: inactive

Lookup: Could you kindly confirm the outcome this assay logged for Cc1cc(S(=O)(=O)N2CCOCC2)ccc1OCC(=O)N1CCOCC1 ?
Found: inactive

Lookup: Entry CC(NC(=O)c1ccccc1)C(=O)OCC(=O)Nc1cccc(S(=O)(=O)N2CCCC2)c1 (stereo unspecified) : call = ?
Found: inactive

Lookup: Per the records of this test, what outcome belongs to O=C(Nc1nc2ccc([N+](=O)[O-])cc2s1)c1ccc(S(=O)(=O)N2CCCc3ccccc32)cc1 ?
Found: active

Lookup: Assay outcome for C/C(=N\NC(=O)COc1ccc(C)cc1[N+](=O)[O-])c1ccc2c(c1)OCCO2 : what was it?
Found: inactive

Lookup: Fill in: this test's call for Cc1ccc(C(=O)NC2CCC2)cc1-c1ccc(C(=O)NCC2CC2)cc1 is ___
Found: active

Lookup: Record request — test call for O=C(COC(=O)c1ccc(F)cc1)Nc1nc2ccc([N+](=O)[O-])cc2s1
Found: inactive

Lookup: So what was the verdict on O=C(COc1ccc(S(=O)(=O)N2CCOCC2)cc1Cl)N1CCOCC1 in this test?
Found: inactive

Lookup: // return assay outcome for Cc1cc(C2=NNC(=Nc3ccc(S(=O)(=O)N4CCOCC4)cc3)SC2)c(C)n1CC1CCCO1 (stereo unspecified)
Found: inactive

Lookup: Just curious, what result did COC(=O)c1ccc(C(=O)OC)c(NC(=S)N2CCCCC2)c1 get here?
Found: inactive

Lookup: Assay outcome for O=C(/C=C/c1ccccc1)N1CCN(Cc2cc(=O)n3nc(-c4ccccc4F)sc3n2)CC1 : what was it?
Found: inactive

Lookup: Entry Cc1cc(C)cc(NC(=S)NCc2ccc(F)cc2)c1 : call = ?
Found: inactive

Lookup: Outcome? Cc1ccc2c(c1)C1CN(C)CCC1N2S(=O)(=O)c1cccc(F)c1 (stereo unspecified)
Found: inactive

Lookup: Recorded call for O=C(Nc1nc2ccc([N+](=O)[O-])cc2s1)c1ccncc1 ?
Found: inactive
